Reference for the values: patent US12630785B2

# ASSAY_TEXT: Capsule perfume leakage in liquid fabric enhancer (LFE), headspace SPME GC/MS
# Format: physicochemical
# CONDITION_SUMMARY: PRM of Perfume 2 out of Capsule Sample C; LFE Composition 1
QUANTITY_NAME: Leakage (as %) after 1 week at 35° C.

Reference set, count: 4
COMPOUND	UNIT_ABBREV	REPORTED
CCC(=O)OC1C=CC2C3CCC(C3)C12 (stereo not drawn)	%	4
CCOC(=O)C1CCC(C(=O)OCC)CC1 (stereo not drawn) [diethyl 1,4-cyclohexane dicarboxylate]	%	3
COC(=O)OC1CC/C=C\CCC1 (stereo not drawn)	%	5
CCOC(=O)C(C)CC (stereo not drawn) [Ethyl 2-methyl butyrate]	%	21

1 = c1ccc(Oc2ccccc2)cc1 [Diphenyl oxide]
2 = CCC(C)(O)CCCC(C)C (stereo not drawn) [Tetrahydro linalool]
Field: lower recorded Leakage (as %) after 1 week at 35° C. (choose 1 or 2 ) Write the label of whichever entry you select.
1
